biological target: Estrogen Receptor (ERα) in MCF-7 cells (Homo sapiens (Human), UniProt P03372); assay: MCF-7 ER down-regulation assay (immuno-fluorescence)
Sequence (P03372 whole entry): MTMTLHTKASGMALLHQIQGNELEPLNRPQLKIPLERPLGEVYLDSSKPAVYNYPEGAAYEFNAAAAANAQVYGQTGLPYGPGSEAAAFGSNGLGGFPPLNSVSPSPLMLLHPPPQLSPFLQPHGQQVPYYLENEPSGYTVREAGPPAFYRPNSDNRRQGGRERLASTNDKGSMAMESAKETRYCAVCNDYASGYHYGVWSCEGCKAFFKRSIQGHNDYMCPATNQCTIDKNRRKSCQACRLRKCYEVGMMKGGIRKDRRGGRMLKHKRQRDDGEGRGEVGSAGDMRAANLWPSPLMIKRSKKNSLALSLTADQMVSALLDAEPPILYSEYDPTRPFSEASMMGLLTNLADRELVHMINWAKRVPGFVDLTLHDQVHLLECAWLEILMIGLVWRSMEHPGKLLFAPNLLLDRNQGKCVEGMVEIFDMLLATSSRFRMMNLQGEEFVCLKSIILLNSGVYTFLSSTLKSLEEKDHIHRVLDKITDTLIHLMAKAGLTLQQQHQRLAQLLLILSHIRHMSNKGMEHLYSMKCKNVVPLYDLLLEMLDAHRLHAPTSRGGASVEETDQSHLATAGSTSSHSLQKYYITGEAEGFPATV
Assay Endpoint: IC50 (nM)

{"columns": ["Mol Smiles", "Experimental Value"],
 "data": [
  ["C[C@@H]1Cc2c([nH]c3ccccc23)[C@@H](c2nccc(NCCNCCCF)c2F)N1CC(F)(F)F", 9.2],
  ["Cc1c(OCCNCCCF)ccc(F)c1[C@@H]1c2[nH]c3ccc(F)cc3c2C[C@@H](C)N1C[C@H](C)C(=O)O", 0.34],
  ["Cc1c(OCCN(C)CCCF)ncc(F)c1[C@@H]1c2[nH]c3ccc(F)cc3c2C[C@@H](C)N1C[C@@H](C)C(=O)O", 0.21],
  ["Cc1c(OCCNCCCF)ncnc1[C@@H]1c2[nH]c3ccccc3c2C[C@@H](C)N1CC(F)(F)CO", 0.31],
  ["C[C@@H](CN1[C@H](c2c(F)cnc(OCCNCCCF)c2Cl)c2[nH]c3ccccc3c2C[C@H]1C(F)F)C(=O)O", 0.9],
  ["Cc1c(OCCNCCCF)ccc(F)c1[C@@H]1c2[nH]c3ccccc3c2CC(C)(C)N1C[C@H](C)C(=O)O", 1.6],
  ["C[C@@H]1Cc2c([nH]c3ccc(F)cc23)[C@@H](c2c(F)cnc(OCCNCCCF)c2F)N1CC1(F)CC1", 0.41]
]}

----------
The compounds listed here are annotated with their IC50.
biological target: recombinant human Estrogen Receptor alpha ligand binding domain (ER alpha-LBD (GST)) (Homo sapiens (Human), UniProt P03372); assay: ERα binding assay (LanthaScreen TR-FRET competition)
Sequence (P03372 307-554): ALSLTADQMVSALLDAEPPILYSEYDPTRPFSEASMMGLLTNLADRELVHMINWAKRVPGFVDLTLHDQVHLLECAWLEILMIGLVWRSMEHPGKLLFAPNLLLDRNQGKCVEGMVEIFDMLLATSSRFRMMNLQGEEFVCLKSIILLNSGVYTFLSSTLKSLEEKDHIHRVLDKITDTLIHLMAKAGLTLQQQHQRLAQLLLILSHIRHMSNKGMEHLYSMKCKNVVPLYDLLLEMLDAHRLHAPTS

{"columns": ["Compound", "IC50 [nM]"],
 "data": [
  ["C[C@@H]1Cc2c([nH]c3ccccc23)[C@@](C)(c2cccc(OCCNCCCF)c2)N1CC(F)(F)F [Example 75]", 52],
  ["C[C@@H]1Cc2c([nH]c3ccccc23)[C@@H](c2cncc(OCCNCCCF)c2)N1CC(F)(F)F [Example 101]", 9.2],
  ["Cc1c(OCCNCCCF)ccc(F)c1[C@@H]1c2[nH]c3ccccc3c2CC(C)(C)N1C[C@H](C)C(=O)O [Example 134]", 5.8],
  ["C[C@@H]1Cc2c([nH]c3ccccc23)[C@@H](c2nccc(NCCNCCCF)c2F)N1CC(F)(F)F [Example 94]", 3.6],
  ["COc1ccc(OC[C@H](C)NCCCF)cc1[C@@H]1c2[nH]c3ccccc3c2C[C@@H](C)N1CC(F)(F)CO [Example 49]", 1.2],
  ["COc1ccc(OCCNCCCF)c(F)c1[C@@H]1c2[nH]c3ccccc3c2C[C@@H](C)N1CC1(F)CC1 [Example 83]", 1.7],
  ["C[C@@H]1Cc2c([nH]c3ccccc23)[C@@H](c2cc(OCCNCCCF)ccc2CO)N1CC(F)(F)F [Example 70]", 1300]
]}

----------
Parameter 'readout' = IC50; parameter 'system' = hERG potassium channel (Homo sapiens (Human)).
Sequence (Q12809 whole entry): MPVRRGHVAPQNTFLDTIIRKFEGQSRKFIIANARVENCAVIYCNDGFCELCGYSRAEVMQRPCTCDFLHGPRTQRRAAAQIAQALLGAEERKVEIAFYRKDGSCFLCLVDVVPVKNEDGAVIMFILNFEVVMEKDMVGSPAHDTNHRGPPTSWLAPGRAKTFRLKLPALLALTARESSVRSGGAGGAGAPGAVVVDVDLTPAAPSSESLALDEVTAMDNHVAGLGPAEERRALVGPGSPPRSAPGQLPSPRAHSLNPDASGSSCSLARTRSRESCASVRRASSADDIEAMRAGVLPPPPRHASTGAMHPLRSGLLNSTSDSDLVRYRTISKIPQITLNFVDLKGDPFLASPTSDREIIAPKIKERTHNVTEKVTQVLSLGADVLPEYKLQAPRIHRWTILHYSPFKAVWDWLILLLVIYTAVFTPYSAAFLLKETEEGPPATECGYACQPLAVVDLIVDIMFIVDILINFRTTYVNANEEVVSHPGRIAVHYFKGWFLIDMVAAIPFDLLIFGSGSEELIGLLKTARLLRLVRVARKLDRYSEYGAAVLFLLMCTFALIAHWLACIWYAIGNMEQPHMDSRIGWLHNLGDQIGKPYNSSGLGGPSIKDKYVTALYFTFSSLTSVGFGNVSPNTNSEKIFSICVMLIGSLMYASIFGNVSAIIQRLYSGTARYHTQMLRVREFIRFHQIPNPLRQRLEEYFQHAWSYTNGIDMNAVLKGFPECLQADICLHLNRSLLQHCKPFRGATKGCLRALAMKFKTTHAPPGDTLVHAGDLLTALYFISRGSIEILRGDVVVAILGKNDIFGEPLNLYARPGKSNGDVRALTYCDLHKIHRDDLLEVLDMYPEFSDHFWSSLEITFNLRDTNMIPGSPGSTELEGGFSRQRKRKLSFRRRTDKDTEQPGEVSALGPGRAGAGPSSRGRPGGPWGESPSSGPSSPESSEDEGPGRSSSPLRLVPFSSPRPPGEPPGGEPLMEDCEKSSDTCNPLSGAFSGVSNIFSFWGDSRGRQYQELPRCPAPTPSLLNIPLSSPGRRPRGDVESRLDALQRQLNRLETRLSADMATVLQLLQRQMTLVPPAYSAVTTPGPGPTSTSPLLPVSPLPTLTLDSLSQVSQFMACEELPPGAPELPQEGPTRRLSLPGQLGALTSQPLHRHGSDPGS

{"columns": ["Mol Smiles", "Bound Type", "IC50 / µM"],
 "data": [
  ["C[C@@H]1Cc2c([nH]c3ccc(F)cc23)[C@@H](c2c(F)cnc(OCCNCCCF)c2F)N1CC(F)(F)CO", "=", 9.4],
  ["COc1ccc(OCCNCCCF)cc1[C@@H]1c2[nH]c3ccccc3c2C[C@@H](C)N1C[C@H](C)C(=O)O", ">", 40],
  ["C[C@@H]1Cc2c([nH]c3ccccc23)[C@@H](c2cccc(OCCNCCCF)c2C(F)F)N1CC(F)(F)CO", "=", 2],
  ["COc1cnc(NCCNCCCF)cc1[C@@H]1c2[nH]c3ccccc3c2C[C@@H](C)N1CC(F)(F)F", "=", 7.1],
  ["C[C@@H]1Cc2c([nH]c3ccccc23)[C@@H](c2c(Cl)ccc(OCCNCCCF)c2Cl)N1C[C@H](C)C(=O)O", ">", 40],
  ["C[C@@H]1Cc2c([nH]c3ccccc23)[C@@H](c2nccc(OCCNCCCF)c2F)N1CC(F)(F)F", "=", 23],
  ["C[C@@H]1Cc2c([nH]c3ccccc23)[C@@H](c2cc(OCCNCCCF)cc(F)c2F)N1CC(F)(F)F", "=", 2.3],
  ["COc1ccc(NCCNCCCF)cc1[C@@H]1c2[nH]c3ccccc3c2C[C@@H](C)N1CC(F)(F)F", "=", 4.1],
  ["C[C@@H]1Cc2c([nH]c3ccccc23)[C@@H](c2cc(OCCNCCCF)ccc2CO)N1CC(F)(F)F", "=", 6.3],
  ["COc1ccc(O[C@@H](C)CNCCCF)cc1[C@@H]1c2[nH]c3ccccc3c2C[C@@H](C)N1CC(F)(F)CO", "=", 2.7]
]}

----------
experiment: Log D (shake flask, 1-octanol/aqueous buffer); assay type: physicochemical; settings: 1-octanol/aqueous buffer, pH 7.4, pH 7.4
The compounds listed here are annotated with their logD.
Assay Endpoint: logD

{"columns": ["Compound", "Experimental Value"],
 "data": [
  ["C[C@@H]1Cc2c([nH]c3ccccc23)[C@@H](c2cccc(OCCNCCCF)c2C#N)N1CC(F)(F)F [Example 69]", 3.6],
  ["C[C@@H]1Cc2c([nH]c3ccccc23)[C@@H](c2c(Cl)ccc(OCCNCCCF)c2F)N1C[C@H](C)C(=O)O [Example 54]", 0.9],
  ["COc1ccc(OCCNCCCF)nc1[C@@H]1c2[nH]c3ccccc3c2C[C@@H](C)N1CC(F)(F)F [Example 56]", 2.7],
  ["COc1ccc(NCCNCCCF)c(F)c1[C@@H]1c2[nH]c3ccccc3c2C[C@@H](C)N1CC(F)(F)F [Example 90]", 2.8],
  ["C[C@@H]1Cc2c([nH]c3ccccc23)[C@@H](c2c(F)ccc(OCCNCCCF)c2F)N1CC(F)F [Example 51]", 3.2],
  ["C[C@@H]1Cc2c([nH]c3ccccc23)[C@@H](c2ccnc(OCCNCCCF)c2)N1CC(F)(F)F [Example 102]", 3.8],
  ["C[C@@H]1Cc2c([nH]c3ccccc23)[C@@H](c2cc(OCCNCCCF)ccc2Cl)N1CC(F)(F)F [Example 22]", 4.2],
  ["C[C@@H]1Cc2c([nH]c3ccccc23)[C@@H](c2cc(OCCNCCCF)cc(F)c2F)N1CC(F)(F)F [Example 30]", 4.1],
  ["COc1ccc(OCCNCCCF)c(F)c1[C@@H]1c2[nH]c3ccccc3c2C[C@@H](C)N1CC1(F)CC1 [Example 83]", 2.9]
]}

----------
assay: Human plasma protein binding (equilibrium dialysis); format: in vitro ADME
The compounds listed here are annotated with their Human plasma protein binding (% free).

{"columns": ["Mol Smiles", "Readout Units", "Human plasma protein binding (% free)"],
 "data": [
  ["C[C@@H]1Cc2c([nH]c3ccccc23)[C@@H](c2c(F)ccc(OCCNCCCF)c2F)N1CC1(F)COC1", "% free", 3.5],
  ["Cc1ccc(OCCNCCCF)nc1[C@@H]1c2[nH]c3ccccc3c2C[C@@H](C)N1CC(F)(F)F", "% free", 1],
  ["C[C@@H]1Cc2c([nH]c3ccccc23)[C@@H](c2c(F)ccc(NCCNCCCF)c2F)N1CC(F)(F)F", "% free", 0.58],
  ["C[C@@H]1Cc2c([nH]c3ccc(F)cc23)[C@@H](c2c(F)cnc(OCCNCCCF)c2F)N1CC1(F)CC1", "% free", 1.9],
  ["C[C@@H]1Cc2c([nH]c3ccccc23)[C@@H](c2nccc(OCCNCCCF)c2F)N1CC(F)(F)CO", "% free", 6.8],
  ["Cc1ccc2[nH]c3c(c2c1)C[C@@H](C)N(CC(F)(F)CO)[C@@H]3c1c(F)ccc(OCCNCCCF)c1F", "% free", 0.97],
  ["COc1cc(F)c(OCCNCCCF)cc1[C@@H]1c2[nH]c3ccccc3c2C[C@@H](C)N1CC(F)(F)F", "% free", 1.2]
]}

----------
The compounds listed here are annotated with their MCF7 Western % ER deg vs Fv.
biological target: Estrogen Receptor (ERα) in MCF-7 cells (Homo sapiens (Human), UniProt P03372); assay: Western blotting assay, ER down-regulation in MCF-7; format: cell-based; settings: MCF-7, 100 nM compound, 48 h, vs 100 nM fulvestrant

{"columns": ["Mol Smiles", "MCF7 Western % ER deg vs Fv, %"],
 "data": [
  ["C[C@@H]1Cc2c([nH]c3ccccc23)[C@@H](c2c(F)ccc(OCCNCCCF)c2F)N1C[C@H](C)C(=O)O", 76],
  ["C[C@@H](CN1[C@H](c2c(F)ccc(OCCNCCCF)c2Cl)c2[nH]c3ccccc3c2C[C@H]1C(F)(F)F)C(=O)O", 79],
  ["Cc1c(OCCNCCCF)ccc(F)c1[C@@H]1c2[nH]c3ccccc3c2C[C@@H](C(F)F)N1C[C@H](C)C(=O)O", 90],
  ["COc1ccc(NCCNCCCF)c(F)c1[C@@H]1c2[nH]c3ccccc3c2C[C@@H](C)N1CC(F)(F)F", 76],
  ["COc1ccc(OCCNCCCF)cc1[C@@H]1c2[nH]c3ccccc3c2C[C@@H](C)N1CC(F)(F)CO", 98],
  ["C[C@@H]1Cc2c([nH]c3ccc(F)cc23)[C@@H](c2c(F)ccc(OCCNCCCF)c2F)N1CC(F)(F)CO", 94],
  ["Cc1c(OCCN(C)CCCF)ccc(F)c1[C@@H]1c2[nH]c3ccccc3c2C[C@@H](C)N1C[C@H](C)C(=O)O", 87]
]}
